B1: SMTNL2 (parent)
chain: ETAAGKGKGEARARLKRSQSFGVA

- Variants of: B1
- PROCEDURE_DETAILS: protein stability index of a GFP-peptide fusion (GPS, HEK-293T) (PSI 1-6); higher = more stable;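 further: lentivirally expressed fusions sorted by FACS into six bins by GFP to DsRed ratio, PSI derived from sequencing read proportions per bin multiplied by bin number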
- EXPERIMENTAL_CONTEXT: c terminus: a fixed tail appended
Each entry below carries its recorded protein stability index.
Enter the number alone.

K6C :: 2.43
G5Q :: 4.39
A4M :: 4.71

In: # return recorded protein stability index for input R17D
Out: 4.31

In: Supply recorded protein stability index for G5D here.
Out: 3.84

In: Specify measured protein stability index for G5F .
Out: 4.04
